Readings of pKd for the listed sequences
Biological target: HLA-A*01:01
Test: IEDB peptide-MHC binding, purified MHC/direct/fluorescence; filed as Kd, often an IC50 or EC50 that approximates it; bounds were set here for any values at or beyond the usual limits of such assays
Details: source organism: Brucella abortus
pKd: −log10 of the molar value.
Recorded metric: pKd

{"columns": ["Sequence code", "Result"],
 "data": [
  ["GRKTPLLCF", "≤ 4.70"],
  ["KLYERNTAF", "≤ 4.70"]
]}

====

Target: HLA-A*02:11
Assay: IEDB peptide-MHC binding, purified MHC/direct/fluorescence; filed as Kd, often an IC50 or EC50 that approximates it; bounds were set here for any values at or beyond the usual limits of such assays
Conditions: source organism: Clostridium botulinum NCTC 2916

{"columns": ["Sequence code", "Kd, nM"],
 "data": [
  ["RVYINVVVK", 603]
]}

====

Target: HLA-B*18:01
Test: IEDB peptide-MHC binding, purified MHC/direct/fluorescence; filed as Kd, often an IC50 or EC50 that approximates it; bounds were set here for any values at or beyond the usual limits of such assays
Settings: source organism: Vibrio vulnificus YJ016

{"columns": ["Sequence code", "Kd"],
 "data": [
  ["KRFYQTVGF", "≥ 20 µM"]
]}

====

Reported Kd is given for each of the following sequences.
Target: HLA-B*40:01
Assay: IEDB peptide-MHC binding, purified MHC/competitive/radioactivity; filed as Kd, often an IC50 or EC50 that approximates it; bounds were set here for any values at or beyond the usual limits of such assays
Settings: source organism: Dengue virus 4 Philippines/H241/1956

{"columns": ["Sequence code", "Kd [nM]"],
 "data": [
  ["VEITALILGA", 842],
  ["REWCFTGERN", 502]
]}

====

Target: HLA-A*03:01
Experiment: IEDB peptide-MHC binding, purified MHC/competitive/radioactivity; filed as Kd, often an IC50 or EC50 that approximates it; bounds were set here for any values at or beyond the usual limits of such assays
Conditions: source organism: Mammarenavirus whitewaterense
pKd: −log10 of the molar value.

{"columns": ["Sequence code", "Target or system", "pKd"],
 "data": [
  ["GVFKNPCTSH", "HLA-A*03:01", 5.20]
]}

====

Molecular target: HLA-A*02:02
Test: IEDB peptide-MHC binding, purified MHC/competitive/radioactivity; filed as Kd, often an IC50 or EC50 that approximates it; bounds were set here for any values at or beyond the usual limits of such assays
Settings: source organism: Vaccinia virus WR
pKd: −log10 of the molar value.
Let's look at some sequences and their measured pKd.

{"columns": ["Sequence code", "Value operator", "pKd"],
 "data": [
  ["VVECLTVPNI", "=", 5.07],
  ["YIENTNQGNI", "=", 5.91],
  ["KTDGAVTSPL", "=", 7.21],
  ["KTKISVEKI", "=", 5.12],
  ["IALALEQYGI", "=", 6.01],
  ["LIYDDNIDSI", "=", 6.92],
  ["IMRVMANNV", "=", 6.40],
  ["YLLGDSDSVA", "=", 8.71],
  ["EVVMAYVGIK", "=", 4.92],
  ["TTFITVLTSV", "=", 5.95],
  ["LMIFISSFL", "=", 9.19],
  ["VQLSNNKYV", "=", 5.13],
  ["KLFTHDIML", "=", 8.98],
  ["IVCSKTVKNV", "=", 4.97],
  ["IAGIILLIL", "=", 5.38],
  ["GLCNYGGILI", "=", 6.82],
  ["ITTLLNETA", "=", 6.38],
  ["LLTACTIFYI", "=", 8.57],
  ["EILRNYLRL", "=", 4.85],
  ["LIISTDQDT", "≤", 4.11],
  ["RLYNSLKRFT", "=", 5.97],
  ["NLRCHSAHV", "=", 6.42],
  ["IIRVTTELNI", "=", 5.00],
  ["YIWIKNLET", "=", 4.90],
  ["SAFNDDGIYI", "=", 7.45],
  ["FTNSQIFNII", "=", 6.84],
  ["CAVIPFDDIV", "=", 5.53],
  ["DLKHATDYIA", "=", 5.06],
  ["LVDKEDTDIV", "=", 5.43],
  ["LTTVFIKYV", "=", 5.44],
  ["QTVDFTDCRT", "≤", 4.52],
  ["RVKQWVMDTL", "=", 5.46],
  ["TTNNLLEQLI", "=", 5.05],
  ["VAVNKSNKPL", "=", 5.56],
  ["PLTLLIKTL", "=", 5.28],
  ["CLTVPNITI", "=", 7.02],
  ["DTIAHINTLI", "=", 5.94],
  ["NIISYIILFI", "=", 6.91],
  ["SINNQLMYDI", "=", 6.31],
  ["DIYDAVRAFL", "=", 5.84],
  ["TAATKRYPGV", "≤", 4.59],
  ["LTNKKYRCMA", "≤", 4.46],
  ["PANINDKQIM", "≤", 4.31],
  ["NIKPVIVPDI", "=", 4.99],
  ["SVQLSNNKYV", "=", 5.91],
  ["DTSNNIAEYI", "=", 5.48],
  ["NITTLLNET", "=", 5.89],
  ["YTGGYDVSL", "=", 5.70],
  ["TIDNIVTSLA", "≤", 4.15],
  ["NLTQLFKYV", "=", 6.49],
  ["YLGHSAGFT", "=", 6.06],
  ["SVDVDIYDAV", "=", 9.37]
]}

====

Target: HLA-B*27:05
Experiment: IEDB peptide-MHC binding, purified MHC/direct/fluorescence; filed as Kd, often an IC50 or EC50 that approximates it; bounds were set here for any values at or beyond the usual limits of such assays
Conditions: source organism: Shigella sonnei Ss046
Recorded metric: Kd

{"columns": ["Sequence code", "Target or system", "Result"],
 "data": [
  ["VLDMGDPVK", "HLA-B*27:05", "≥ 20 µM"]
]}

====

Target: HLA-A*01:01
Assay: IEDB peptide-MHC binding, purified MHC/direct/fluorescence; filed as Kd, often an IC50 or EC50 that approximates it; bounds were set here for any values at or beyond the usual limits of such assays
Settings: source organism: Mycobacterium tuberculosis
Recorded metric: Kd

{"columns": ["Sequence code", "Result"],
 "data": [
  ["SPRSRNRSF", "≥ 20 µM"],
  ["APAKKAAPA", "≥ 20 µM"],
  ["QVDQGIEYY", "0.119 µM"],
  ["QVFKGVVIR", "≥ 20 µM"],
  ["LPAEVRAAF", "4.61 µM"]
]}

====

Target: HLA-B*08:01
Test: IEDB peptide-MHC binding, purified MHC/direct/fluorescence; filed as Kd, often an IC50 or EC50 that approximates it; bounds were set here for any values at or beyond the usual limits of such assays
Details: source organism: Vibrio vulnificus YJ016
pKd: −log10 of the molar value.

{"columns": ["Sequence code", "pKd"],
 "data": [
  ["KRFYQTVGF", "≤ 4.70"]
]}

====

Target: HLA-A*68:01
Assay: IEDB peptide-MHC binding, purified MHC/competitive/radioactivity; filed as Kd, often an IC50 or EC50 that approximates it; bounds were set here for any values at or beyond the usual limits of such assays
Conditions: source organism: Mammarenavirus lassaense
pKd: −log10 of the molar value.
Recorded metric: pKd

{"columns": ["Sequence code", "Target or system", "Recorded metric", "Readout number"],
 "data": [
  ["VCSFYADPK", "HLA-A*68:01", "pKd", 5.25]
]}

====

Target: HLA-B*44:02
Assay: IEDB peptide-MHC binding, purified MHC/direct/fluorescence; filed as Kd, often an IC50 or EC50 that approximates it; bounds were set here for any values at or beyond the usual limits of such assays
Details: source organism: Escherichia coli O157:H7

{"columns": ["Sequence code", "Kd"],
 "data": [
  ["PSSKPDWFY", "≥ 20 µM"]
]}

====

Biological target: HLA-B*35:01
Assay: IEDB peptide-MHC binding, purified MHC/competitive/radioactivity; filed as Kd, often an IC50 or EC50 that approximates it; bounds were set here for any values at or beyond the usual limits of such assays
Settings: source organism: Dengue virus 2 Jamaica/1409/1983
pKd: −log10 of the molar value.

{"columns": ["Sequence code", "pKd"],
 "data": [
  ["TAVAPSMTM", 7.80]
]}
